- TARGET_OR_SYSTEM: HCV NS3 protease (Hepatitis C virus genotype 1b)
- Construct: an NS3/4A complex comprising the NS3 protease domain
- Sequence (P26663 1027-1208, other chains not shown): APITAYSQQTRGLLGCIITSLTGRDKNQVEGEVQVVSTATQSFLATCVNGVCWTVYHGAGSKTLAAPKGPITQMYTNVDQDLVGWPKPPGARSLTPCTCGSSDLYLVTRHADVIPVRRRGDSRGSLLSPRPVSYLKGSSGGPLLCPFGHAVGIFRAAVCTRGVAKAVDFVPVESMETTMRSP
- EXPERIMENT_DESCRIPTION: Inhibition of NS3 protease (HPLC cleavage assay, NS3/4A complex with Pep4AK, substrate peptide 4AB)
- Assay type: biochemical
- STUDY_CONDITIONS: Table 4 indoline keto acids and related; read-out: IC50
Entries whose IC50 is below 20 µM take yes; entries at or above 20 µM take no.

Given the entry CC(C)C[C@H](NC(=O)C1(Cc2ccccc2Cl)Cc2ccccc2N1)C(=O)NC(CC(F)F)C(=O)C(=O)O (single isomer, unassigned) , would its reported IC50 be below 20 µM?
yes

Given the entry COc1cccc(CC2(C(=O)N[C@@H](CC(C)C)C(=O)NC(CC(F)F)C(=O)C(=O)O)Cc3ccccc3N2)c1 (mixture of isomers) , would its reported IC50 be below 20 µM?
no

Given the entry CCC(C)CC1(C(=O)N[C@@H](CC(C)C)C(=O)NC(CC(F)F)C(=O)C(=O)O)Cc2ccccc2N1 (mixture of isomers) , would its reported IC50 be below 20 µM?
no

Given the entry CC(C)C[C@H](NC(=O)C1(Cc2cccc(Oc3ccccc3)c2)Cc2ccccc2N1)C(=O)NC(CC(F)F)C(=O)C(=O)O (mixture of isomers) , would its reported IC50 be below 20 µM?
no

Given the entry CC(C)C[C@H](NC(=O)C1Cc2ccc(OC3CCS(=O)(=O)CC3)cc2N1)C(=O)NC(CC(F)F)C(=O)C(=O)O (single isomer, unassigned) [Compound 10i] , would its reported IC50 be below 20 µM?
no

Given the entry CC(C)CC(NC(=O)C1(Cc2cccc(C#N)c2)Cc2ccccc2N1)C(=O)NC(CC(F)F)C(=O)C(=O)O (mixture of isomers) , would its reported IC50 be below 20 µM?
yes

Given the entry CC(C)C[C@H](NC(=O)C1(CC2CCCCC2)Cc2ccccc2N1)C(=O)NC(CC(F)F)C(=O)C(=O)O (mixture of isomers) , would its reported IC50 be below 20 µM?
no

Given the entry CC(C)C[C@H](NC(=O)C1(CC(C)C)Cc2ccccc2N1)C(=O)NC(CC(F)F)C(=O)C(=O)O (mixture of isomers) , would its reported IC50 be below 20 µM?
yes

Given the entry CCC(CC)CC1(C(=O)N[C@@H](CC(C)C)C(=O)NC(CC(F)F)C(=O)C(=O)O)Cc2ccccc2N1 (single isomer, unassigned) , would its reported IC50 be below 20 µM?
yes

Given the entry COCCOCC1(C(=O)N[C@@H](CC(C)C)C(=O)NC(CC(F)F)C(=O)C(=O)O)Cc2ccccc2N1 (mixture of isomers) , would its reported IC50 be below 20 µM?
no

Given the entry CC(C)C[C@H](NC(=O)C1(Cc2cccc(Br)c2)Cc2ccccc2N1)C(=O)NC(CC(F)F)C(=O)C(=O)O (mixture of isomers) , would its reported IC50 be below 20 µM?
no

Given the entry CC(C)CCC1(C(=O)N[C@@H](CC(C)C)C(=O)NC(CC(F)F)C(=O)C(=O)O)Cc2ccccc2N1 (mixture of isomers) , would its reported IC50 be below 20 µM?
no

---

For each entry below, report its pIC50 value.
- TARGET_OR_SYSTEM: HCV NS3 protease (Hepatitis C virus genotype 1b)
- Construct: an NS3/4A complex comprising the NS3 protease domain
- EXPERIMENT_DESCRIPTION: Inhibition of NS3 protease (HPLC cleavage assay, NS3/4A complex with Pep4AK, substrate peptide 4AB)
- Type: biochemical
- STUDY_CONDITIONS: Table 4 indoline keto acids and related; read-out: IC50
Scale: pIC50 equals -log10([C]), with [C] in mol/L.

Fill blank: measured pIC50 of the compound CC(C)CC1c2ccccc2NC1C(=O)N[C@@H](CC(C)C)C(=O)NC(CC(F)F)C(=O)C(=O)O (single isomer, unassigned) is ____.
4.59

Fill blank: measured pIC50 of the compound CC(C)C[C@H](NC(=O)C1(CC2CCC2)Cc2ccccc2N1)C(=O)NC(CC(F)F)C(=O)C(=O)O (mixture of isomers) is ____.
4.47

Fill blank: measured pIC50 of the compound CC(C)C[C@H](NC(=O)C1Cc2ccc(OC3CCOC3)cc2N1)C(=O)NC(CC(F)F)C(=O)C(=O)O (mixture of isomers) [Compound 10g] is ____.
4.64
